biological target: Dickkopf-related protein 1 (Homo sapiens) (UniProt O94907); test: small molecules binding DKK1 protein – biochemical, small-molecule microarray, 635 nm fluorescence scan, primary screen (AID 1106); conditions: higher = more signal;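 also: score merges emission near 667 nm with signal to noise over three replicate slides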
Sequence (O94907 whole entry, looked up): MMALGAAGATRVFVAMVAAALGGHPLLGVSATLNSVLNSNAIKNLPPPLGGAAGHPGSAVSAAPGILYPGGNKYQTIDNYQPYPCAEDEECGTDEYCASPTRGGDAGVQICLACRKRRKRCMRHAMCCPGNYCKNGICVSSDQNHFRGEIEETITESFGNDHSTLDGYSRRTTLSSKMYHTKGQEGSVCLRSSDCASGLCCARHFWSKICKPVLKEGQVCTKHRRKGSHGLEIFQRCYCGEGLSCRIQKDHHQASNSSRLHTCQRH
Please provide measured composite z-score for the entries that follow.
Numbers only.

Compound: COc1ccc([C@H]2C[C@H]3C(Br)=C[C@@]2(CO)C(=O)[C@]32CO2)cc1
Assayed Target: Dickkopf-related protein 1 (Homo sapiens) (UniProt O94907)
composite z-score: -0.198

Return reported composite z-score values for all items listed beneath this line.
1. C[N+](C)(C)CCCC[C@@H]1NC(=O)[C@@H]2C[C@H](C(=O)NCCCCCN)[C@H](c3ccc(O)cc3)N2C1=O
2. C=CCNC(=O)[C@@H]1[C@H]2C(=O)O[C@H](c3ccccc3)[C@H](c3ccccc3)N2[C@H](c2ccc(OCCO)cc2)[C@@]12C(=O)N(C(=O)OCCOC)c1ccc(C#CCC(C(=O)OC)C(=O)OC)cc12
3. COC(=O)[C@@]1(Cc2ccccc2)[C@H]2c3cc(C(=O)N(C)C)n(CCc4c[nH]c5ccc(O)cc45)c3C[C@H]2CN1C(=O)c1ccccc1
4. COc1ccc(C(O)C2C=CC3C(=O)N(C)C(=O)C3N2NC(=O)OC(C)(C)C)c2ccccc12 (stereo unspecified)
5. O=C1OCCC=C[C@H]2OC34C=CCN(c5ccc(Cl)cc5)C(=O)[C@H]3N(CCCO)C(=O)[C@@H]4C12 (stereo partly specified)

Marked response:
1. 0.308
2. 1.29
3. -0.0414
4. -0.557
5. -0.455

Cited source for all entries: PubChem BioAssay
